Data origin, for the record: paper PMC6749521

# Tested on: CYP2A6 (Homo sapiens)
# Sequence (P11509 whole entry): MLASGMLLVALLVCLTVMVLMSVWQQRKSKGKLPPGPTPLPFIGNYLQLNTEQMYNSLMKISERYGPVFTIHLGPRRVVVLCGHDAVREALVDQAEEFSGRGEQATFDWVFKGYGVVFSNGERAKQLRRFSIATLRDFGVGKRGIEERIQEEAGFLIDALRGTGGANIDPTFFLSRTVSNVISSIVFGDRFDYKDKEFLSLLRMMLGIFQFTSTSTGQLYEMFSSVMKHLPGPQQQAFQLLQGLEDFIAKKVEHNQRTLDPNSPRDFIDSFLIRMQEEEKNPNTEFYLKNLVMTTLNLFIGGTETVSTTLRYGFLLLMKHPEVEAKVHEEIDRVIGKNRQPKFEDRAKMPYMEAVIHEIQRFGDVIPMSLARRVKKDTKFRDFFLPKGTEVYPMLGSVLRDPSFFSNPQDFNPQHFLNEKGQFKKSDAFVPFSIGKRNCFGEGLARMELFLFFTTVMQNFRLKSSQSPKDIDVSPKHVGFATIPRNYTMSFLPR
# Method: CYP2A6 enzyme activity, coumarin 7-hydroxylation (MDI, TDI, DI assays), recombinant baculosomes
# Recorded conditions: human, pH 7.4, probe coumarin (7-hydroxylation), 10 µM, Residual CYP2A6 enzyme activity, direct inhibition (DI) assay, 1 µM flavonoid
Experimental endpoint: activity at 30 min, 1 µM (%)
Kindly provide the numeric value in % only, without the unit symbol.

Prompt line: May I ask what activity at 30 min, 1 µM has been recorded for O=c1cc(-c2ccc(O)cc2)oc2cc(O)cc(O)c12 ?
Response line: 48

----------
# Tested on: UniProt:P11509
# Method: CYP2A6 enzyme activity, coumarin 7-hydroxylation (MDI, TDI, DI assays), recombinant baculosomes
# Recorded conditions: human, pH 7.4, probe coumarin (7-hydroxylation), 10 µM, Residual CYP2A6 enzyme activity, metabolism dependent inhibition (MDI) assay, 1 µM flavonoid; coumarin 10 µM
Experimental endpoint: activity at 30 min, 1 µM (%)
Numbers only; they are read as %.

Prompt line: Need activity at 30 min, 1 µM of O=c1cc(-c2ccc(O)cc2)oc2cc(O)cc(O)c12 , thanks.
Response line: 47
